# Subject Of Test: human 5-HT2C receptor (Homo sapiens, UniProt P28335)
# Construct: expressed in transfected cells; host or cells: not restated for 5-HT2C; R-SAT as for 5-HT2A (NIH 3T3)
# Sequence (P28335 33-458): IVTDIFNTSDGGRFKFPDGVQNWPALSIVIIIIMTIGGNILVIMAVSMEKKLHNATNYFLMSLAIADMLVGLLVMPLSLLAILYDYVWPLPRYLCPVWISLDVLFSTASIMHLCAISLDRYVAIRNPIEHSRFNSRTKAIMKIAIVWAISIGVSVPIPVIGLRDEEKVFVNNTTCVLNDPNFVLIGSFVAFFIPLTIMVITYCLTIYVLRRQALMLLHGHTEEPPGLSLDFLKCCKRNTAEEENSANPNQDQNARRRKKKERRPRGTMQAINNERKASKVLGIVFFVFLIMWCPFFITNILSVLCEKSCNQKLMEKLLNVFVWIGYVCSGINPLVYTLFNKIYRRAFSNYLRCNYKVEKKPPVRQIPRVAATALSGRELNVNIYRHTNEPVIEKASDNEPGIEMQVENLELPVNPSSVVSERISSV
# Assay Summary: R-SAT functional assay, constitutively active wild type 5-HT2C receptor
# Assay type: cell-based
# Recorded Conditions: read-out: 5-HT2C Receptor Negative Log EC50 (inverse agonism) (converted)
Field 'label' (enum: rule met / rule not met). Set to rule met when EC50 is strictly under 0.5 µM; else rule not met.

[[record]]
compound = "CN1CCN(C2=Nc3ccccc3Cc3ccccc32)CC1"
group = "rule not met"

[[record]]
compound = "CN1CCN(C2=Nc3ccccc3Sc3ccc(Cl)cc32)CC1"
group = "rule met"

[[record]]
compound = "OCCN1CCN([C@@H]2C[C@@H](c3ccc(F)cc3)c3ccc(C(F)(F)F)cc32)CC1 (racemic)"
group = "rule met"

[[record]]
compound = "O=C(CCCN1CCC(O)(c2cccc(C(F)(F)F)c2)CC1)c1ccc(F)cc1"
group = "rule not met"


====

# Subject Of Test: 5-HT2A receptor (Homo sapiens)
# Construct: expressed in transfected cells; host or cells: NIH 3T3 (mouse fibroblast)
# Sequence (P28223 whole entry): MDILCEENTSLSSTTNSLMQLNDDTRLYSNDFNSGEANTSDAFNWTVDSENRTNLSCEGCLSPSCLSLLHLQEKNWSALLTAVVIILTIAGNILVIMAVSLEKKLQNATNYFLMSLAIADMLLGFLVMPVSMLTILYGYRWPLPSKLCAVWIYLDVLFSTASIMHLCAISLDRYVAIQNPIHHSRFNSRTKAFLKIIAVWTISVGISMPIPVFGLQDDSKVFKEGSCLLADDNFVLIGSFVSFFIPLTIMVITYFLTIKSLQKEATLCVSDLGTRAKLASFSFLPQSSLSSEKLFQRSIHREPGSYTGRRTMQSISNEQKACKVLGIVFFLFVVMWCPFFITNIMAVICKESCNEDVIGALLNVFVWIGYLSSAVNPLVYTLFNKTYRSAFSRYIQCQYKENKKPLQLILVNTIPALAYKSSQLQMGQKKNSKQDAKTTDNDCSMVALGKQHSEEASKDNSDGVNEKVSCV
# Assay Summary: R-SAT functional assay, constitutively active wild type 5-HT2A receptor in NIH 3T3 cells
# Type: cell-based
# Recorded Conditions: Table 3; 50 ng/well receptor DNA
List of 5-HT2A Receptor Negative Log EC50 (inverse agonism) values.
Quantity Kind: 5-HT2A Receptor Negative Log EC50 (inverse agonism)

[[record]]
compound = "CN(C)CCCN1c2ccccc2Sc2cccnc21"
result = "6.60 +/− 0.44"

[[record]]
compound = "OCCN1CCN(CC/C=C2/c3ccccc3Sc3ccc(C(F)(F)F)cc32)CC1 [CIS-FLUPENTIXOL]"
result = "8.04 +/− 0.10"

[[record]]
compound = "OCCN1CCN(CC/C=C2\\c3ccccc3Sc3ccc(C(F)(F)F)cc32)CC1 [Trans-Flupentixol]"
result = "6.77 +/− 0.21"

[[record]]
compound = "CN1CCN(C2Cc3ccccc3Sc3ccc(Cl)cc32)CC1.O=C(O)/C=C\\C(=O)O (stereo not drawn) [OCTOCLOTHEPIN]"
result = "9.74 +/− 0.98"

[[record]]
compound = "CN1CCCCC1CCN1c2ccccc2Sc2ccc([S+](C)[O-])cc21 (stereo not drawn)"
result = "7.00 +/− 0.30"

[[record]]
compound = "CCN(CC)CCCN1c2ccccc2Sc2ccc(Cl)cc21"
result = "7.70 +/− 0.33"


====

# Subject Of Test: human 5-HT2C receptor (Homo sapiens, UniProt P28335)
# Construct: expressed in transfected cells; host or cells: not restated for 5-HT2C; R-SAT as for 5-HT2A (NIH 3T3)
# Assay Summary: R-SAT functional assay, constitutively active wild type 5-HT2C receptor
# Type: cell-based
# Recorded Conditions: Table 3; 50 ng per well receptor DNA; assayed as agonists and inverse agonists
Quantity Kind: 5-HT2C Receptor Negative Log EC50 (inverse agonism)

[[record]]
molecule = "CN(C)CCCN1c2ccccc2Sc2ccccc21"
result = "Agonist"

[[record]]
molecule = "OCCN1CCN(CC/C=C2\\c3ccccc3Sc3ccc(C(F)(F)F)cc32)CC1 [Trans-Flupentixol]"
result = "5.55 +/− 0.37"

[[record]]
molecule = "CCN(CC)CCCN1c2ccccc2Sc2ccc(Cl)cc21"
result = "<5.0"

[[record]]
molecule = "O=C(CCCN1CCC(O)(c2ccc(Br)cc2)CC1)c1ccc(F)cc1"
result = "No Intrinsic"

[[record]]
molecule = "O=C(CCCN1CCC2(CC1)C(=O)NCN2c1ccccc1)c1ccc(F)cc1"
result = "No Intrinsic"

[[record]]
molecule = "CC1CCN(CCCC(=O)c2ccc(F)cc2)CC1"
result = "No Intrinsic"

[[record]]
molecule = "CCNC(=O)N1CCN(CCCC(c2ccc(F)cc2)c2ccc(F)cc2)CC1 [Amperozide]"
result = "No Intrinsic"

[[record]]
molecule = "OCCN1CCN(CC/C=C2/c3ccccc3Sc3ccc(C(F)(F)F)cc32)CC1 [CIS-FLUPENTIXOL]"
result = "No Intrinsic"

[[record]]
molecule = "CN1CCN(CC/C=C2/c3ccccc3Sc3ccc(S(=O)(=O)N(C)C)cc32)CC1"
result = "No Intrinsic"

[[record]]
molecule = "CN1CCCCC1CCN1c2ccccc2Sc2ccc([S+](C)[O-])cc21 (stereo not shown)"
result = "No Intrinsic"

[[record]]
molecule = "CCN1CCCC1CNC(=O)c1cc(S(N)(=O)=O)ccc1OC (stereo not shown) [Sulpiride]"
result = "No Intrinsic"

[[record]]
molecule = "CN(C)CCCN1c2ccccc2Sc2cccnc21"
result = "Agonist"

[[record]]
molecule = "Cc1ccc(C2(O)CCN(CCCC(=O)c3ccc(F)cc3)CC2)cc1"
result = "No Intrinsic"

